Measured EC50 of individual entries
target: Bcl-2-like protein 1 (Homo sapiens); experiment: Binding affinity to recombinant Bcl-XL expressed in Escherichia coli BL21 by fluorescence polarization assay
Sequence (Q07817 whole entry): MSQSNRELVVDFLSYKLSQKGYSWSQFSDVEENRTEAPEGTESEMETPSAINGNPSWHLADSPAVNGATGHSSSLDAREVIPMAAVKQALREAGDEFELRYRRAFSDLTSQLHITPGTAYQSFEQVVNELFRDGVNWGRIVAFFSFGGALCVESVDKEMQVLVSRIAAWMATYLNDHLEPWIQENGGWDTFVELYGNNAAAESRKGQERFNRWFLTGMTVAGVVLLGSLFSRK
Supply the numeric figure in nM, leaving out any unit text.

Answered cases to consult:
CC[C@H](C)[C@H](NC(=O)[C@H](C)NC(=O)[C@H](CC(C)C)NC(=O)[C@H](CCC(N)=O)NC(=O)[C@H](CCCNC(=N)N)NC(=O)CNC(=O)[C@@H](NC(=O)[C@H](CCC(N)=O)NC(=O)CN)C(C)C)C(=O)N[C@H](C(=O)NCC(=O)N[C@@H](CC(=O)O)C(=O)N[C@@H](CC(=O)O)C(=O)N[C@@H](Cc1ccc(-c2ccccc2)cc1)C(=O)N[C@@H](CC(N)=O)C(=O)N[C@@H](CCCNC(=N)N)C(=O)O)[C@@H](C)CC    267
CC[C@H](C)[C@H](NC(=O)[C@H](C)NC(=O)[C@H](CC(C)C)NC(=O)[C@H](CCC(N)=O)NC(=O)[C@H](CCCNC(=N)N)NC(=O)CNC(=O)[C@@H](NC(=O)[C@H](CCC(N)=O)NC(=O)CN)C(C)C)C(=O)N[C@H](C(=O)NCC(=O)N[C@@H](CC(=O)O)C(=O)N[C@@H](CC(=O)O)C(=O)N[C@@H](Cc1cnc[nH]1)C(=O)N[C@@H](CC(N)=O)C(=O)N[C@@H](CCCNC(=N)N)C(=O)O)[C@@H](C)CC    5120
CC[C@H](C)[C@H](NC(=O)[C@H](C)NC(=O)[C@H](CC(C)C)NC(=O)[C@H](CCC(N)=O)NC(=O)[C@H](CCCN=C(N)N)NC(=O)CNC(=O)[C@@H](NC(=O)[C@H](CCC(N)=O)NC(=O)CN)C(C)C)C(=O)N[C@H](C(=O)NCC(=O)N[C@@H](CC(=O)O)C(=O)N[C@@H](CC(=O)O)C(=O)N[C@@H](Cc1ccc2ccccc2c1)C(=O)N[C@@H](CC(N)=O)C(=O)N[C@@H](CCCN=C(N)N)C(=O)O)[C@@H](C)CC    125

Lab note: next compound to report on.
Which EC50 is listed for CC[C@H](C)[C@H](NC(=O)[C@H](C)NC(=O)[C@H](CC(C)C)NC(=O)[C@H](CCC(N)=O)NC(=O)[C@H](CCCN=C(N)N)NC(=O)CNC(=O)[C@@H](NC(=O)[C@H](CCC(N)=O)NC(=O)CN)C(C)C)C(=O)N[C@H](C(=O)NCC(=O)N[C@@H](CC(=O)O)C(=O)N[C@@H](CC(=O)O)C(=O)N[C@@H](Cc1ccccc1)C(=O)N[C@@H](CC(N)=O)C(=O)N[C@@H](CCCN=C(N)N)C(=O)O)[C@@H](C)CC ?
54
